Reference for the values: the supplement of paper PMC12350171

system: P. vulgatus WT; assay: growth AUC normalised to DMSO control (median) (fraction of control); higher = less growth inhibition, active = hit call of the paper; conditions: 20 µM
Counter-ions that a name gives are not always drawn.
Label criterion met when growth AUC normalised to DMSO control is at or above 1; anything below gets criterion not met.

CN1CCC(=C2c3ccccc3Sc3ccccc32)CC1 [Pimethixene maleate]; criterion not met
CCc1nn(CCCN2CCN(c3cccc(Cl)c3)CC2)c(=O)n1CCOc1ccccc1 [Nefazodone hydrochloride]; criterion not met
CO[C@@H]1[C@@H](OC(N)=O)[C@@H](O)[C@H](Oc2ccc3c(O)c(NC(=O)c4ccc(O)c(CC=C(C)C)c4)c(=O)oc3c2C)OC1(C)C [Novobiocin sodium salt]; criterion not met
C/C(=C1\CCOC(=O)S1)N(C=O)Cc1cnc(C)nc1N [Cycotiamine]; criterion met

// next entry
Evaluate CCOC(=O)O[C@]1(C(=O)OCCl)CC[C@H]2[C@@H]3CCC4=CC(=O)C=C[C@]4(C)[C@H]3[C@@H](O)C[C@@]21C [Loteprednol etabonate] : growth AUC normalised to DMSO control at minimum 1?
criterion not met

====

tested on: Yersinia pseudotuberculosis; assay: growth AUC normalised to DMSO control (fraction of control); higher = less growth inhibition, active = hit call of the paper; settings: 20 µM
Outcome (select one): active, inactive

CC[N+](CC)(CC)CCC(O)(c1ccccc1)C1CCCCC1 (configuration not stated) [Tridihexethyl chloride]; inactive
CN1CCN(C2=Nc3ccccc3Oc3ccc(Cl)cc32)CC1 [Loxapine succinate]; inactive
CC[C@H]1OC(=O)[C@H](C)[C@@H](O[C@H]2C[C@@](C)(OC)[C@@H](O)[C@H](C)O2)[C@H](C)[C@@H](O[C@@H]2O[C@H](C)C[C@H](N(C)C)[C@H]2O)[C@](C)(OC)C[C@@H](C)C(=O)[C@H](C)[C@@H](O)[C@]1(C)O; active

Recorded test outcome, item "Cc1cn([C@H]2C[C@H](N=[N+]=[N-])[C@@H](CO)O2)c(=O)[nH]c1=O"
active

====

system: P. vulgatus RND KO; assay: growth AUC normalised to DMSO control (median) (fraction of control); higher = less growth inhibition, active = hit call of the paper; conditions: 20 µM
Structures can show the parent of a compound that is named as a salt.
Outcome (select one): yes (active), no (inactive)

// below: answered molecules
C1CCC(C(CC2CCCCN2)C2CCCCC2)CC1 (stereo unspecified) [Perhexiline maleate]; no
COc1c(O)cc2c(c1O)[C@@H]1O[C@H](CO)[C@@H](O)[C@H](O)[C@H]1OC2=O [Bergenin]; no
COc1ccc(-c2noc(CC(=O)O)c2-c2ccc(OC)cc2)cc1 [Mofezolac]; no
CNCCCC1c2ccccc2C=Cc2ccccc21 [Protriptyline hydrochloride]; no
COC(=O)C1=C(C)NC(C)=C(C(=O)OCCN2CCN(C(c3ccccc3)c3ccccc3)CC2)C1c1cccc([N+](=O)[O-])c1 (stereo unspecified) [Manidipine Dihydrochloride]; no

Recorded test outcome, item O=C1Cc2cc(CCN3CCN(c4nsc5ccccc45)CC3)c(Cl)cc2N1 [Ziprasidone hydrochloride monohydrate]
no

And for CCOC(=O)Nc1ccc2c(c1)N(C(=O)CCN1CCOCC1)c1ccccc1S2 [Moricizine hydrochloride] ?
no

And for COc1cc(-c2ccc(=O)[nH]n2)ccc1OC(F)F [Zardaverine] ?
no

And for Cc1cc2nc3c(=O)[nH]c(=O)nc-3n(C[C@H](O)[C@H](O)[C@H](O)CO)c2cc1C [Riboflavine] ?
no

And for CC=C(C)C(=O)OC1C(OC(C)=O)C2(CO)C(O)CC3(C)C(=CCC4C5(C)CCC(OC6OC(C(=O)O)C(OC7OC(CO)C(O)C(O)C7O)C(O)C6OC6OC(CO)C(O)C(O)C6O)C(C)(CO)C5CCC43C)C2CC1(C)C (stereo not drawn) [Beta-Escin] ?
no

And for O=c1[nH]cc(F)c(=O)[nH]1 [5-fluorouracil] ?
yes

And for CCCC(=O)OCOC(=O)C1=C(C)NC(C)=C(C(=O)OC)C1c1cccc(Cl)c1Cl (stereo unspecified) [Clevidipine] ?
no
